# Test system: KB (cervical carcinoma)
# ASSAY_REMARKS: in vitro cytotoxicity assay, KB cells
# Format: cell-based, human
# RUN_CONDITIONS: free cytotoxic compound; 5 days
REPORTED_METRIC: IC50 (nM)
Unit nM implied. Number only.

Below: 3 compounds and their reported IC50.
COc1cc2c(cc1OCCCC(=O)Nc1cn(C)c(C(=O)Nc3ccc4nc(C(=O)NCC(C)(C)S(C)=S)n(C)c4c3)n1)N=C[C@@H]1Cc3ccccc3N1C2=O (some centres unmarked)
0.5
COc1cc2c(cc1OCCCC(=O)Nc1cn(C)c(C(=O)NCc3cccc(C(=O)NCC(C)(C)S(C)=S)c3)n1)N=C[C@@H]1Cc3ccccc3N1C2=O (some centres unmarked)
2
COc1cc2c(cc1OCCCC(=O)Nc1ccc(C(=O)Nc3cc(C(=O)NCC(C)(C)S(C)=S)n(C)c3)nc1)N=C[C@@H]1Cc3ccccc3N1C2=O (some centres unmarked)
0.6

Switching to the query record.
Enquiry: Recall and state the measured IC50 for COc1cc2c(cc1OCc1cccc(CC(=O)Nc3cc(C(=O)Nc4ccc(-c5cc(C(=O)NCC(C)(C)S(C)=S)n(C)c5)cc4)n(C)c3)c1)N=C[C@@H]1Cc3ccccc3N1C2=O (some centres unmarked) .
Return: 9

###

Below is a list of entries, each paired with its recorded IC50 value.
# Test system: NCI-H2110 (Non Small Cell Lung Carcinoma)
# ASSAY_REMARKS: in vitro cytotoxicity assay, NCI-H2110 cells
# Type: cell-based
# RUN_CONDITIONS: free cytotoxic compound; 5 days
Unit nM implied. Number only.

Below: 4 compounds and their reported IC50.
COc1cc2c(cc1OCCCC(=O)Nc1cn(C)c(C(=O)NCc3cccc(C(=O)NCC(C)(C)S(C)=S)c3)n1)N=C[C@@H]1Cc3ccccc3N1C2=O (stereo partly drawn)
2
COC(=O)CCNC(=O)c1cc2cc(NC(=O)c3cc(NC(=O)CCCOc4cc5c(cc4OC)C(=O)N4c6ccccc6C[C@H]4C=N5)cn3CCCNC(=O)OC(C)(C)C)ccc2o1
3
COc1cc2c(cc1OCCCC(=O)Nc1cn(C)c(C(=O)Nc3ccc4nc(C(=O)NCC(C)(C)S(C)=S)n(C)c4c3)n1)N=C[C@@H]1Cc3ccccc3N1C2=O (stereo partly drawn)
1
COc1cc2c(cc1OCCCC(=O)Nc1ccc(C(=O)Nc3cc(C(=O)NCC(C)(C)S(C)=S)n(C)c3)nc1)N=C[C@@H]1Cc3ccccc3N1C2=O (stereo partly drawn)
2

Enquiry: Recall and state the measured IC50 for COc1cc2c(cc1OCc1cccc(CC(=O)Nc3cc(C(=O)Nc4ccc(-c5cc(C(=O)NCC(C)(C)S(C)=S)n(C)c5)cc4)n(C)c3)c1)N=C[C@@H]1Cc3ccccc3N1C2=O (stereo partly drawn) .
Return: 2

###

# System: KB-GRC1-MDR (cervical carcinoma/Pgp positive)
# ASSAY_REMARKS: cells
# RUN_CONDITIONS: read-out: IC50 KB-MDR; free cytotoxic compound
Below is a list of entries, each paired with its recorded IC50 value.

Below: 2 compounds and their reported IC50.
COc1cc2c(cc1OCCCC(=O)Nc1nc(C)c(C(=O)Nc3ccc4sc(C(=O)NCC(C)(C)S(C)=S)cc4c3)s1)N=C[C@@H]1Cc3ccccc3N1C2=O (stereo partly drawn) [Compound 81]
> 5 nM
COc1cc2c(cc1OCCCC(=O)Nc1cn(C)c(C(=O)NCc3cccc(C(=O)NCC(C)(C)S(C)=S)c3)n1)N=C[C@@H]1Cc3ccccc3N1C2=O (stereo partly drawn) [Compound 121]
> 5 nM

Switching to the query record.
Enquiry: Recall and state the measured IC50 for COc1cc2c(cc1OCCCC(=O)Nc1ccc(C(=O)Nc3cc(C(=O)NCC(C)(C)S(C)=S)n(C)c3)nc1)N=C[C@@H]1Cc3ccccc3N1C2=O (stereo partly drawn) [Compound 117] .
Return: > 5 nM

###

# Test system: KB-GRC1-MDR (cervical carcinoma/Pgp positive)
# ASSAY_REMARKS: cells
# RUN_CONDITIONS: read-out: IC50 KB-MDR
# Text: […]
REPORTED_METRIC: IC50 (nM)
Unit nM implied. Number only.

Below: 4 molecules and their reported IC50.
COc1cc2c(cc1OCCCC(=O)Nc1cn(C)c(C(=O)Nc3ccc(-c4cc(C(=O)NCC(C)(C)SSC)n(C)c4)cc3)n1)N=C[C@@H]1Cc3ccccc3N1C2=O
0.9
COc1cc2c(cc1OCCCC(=O)Nc1cn(C)c(C(=O)Nc3ccc(-c4csc(C(=O)NCC(C)(C)SSC)n4)cc3)n1)N=C[C@@H]1Cc3ccccc3N1C2=O
3
COc1cc2c(cc1OCCCC(=O)Nc1cccc(C(=O)Nc3cc(C(=O)NCC(C)(C)SSC)n(C)c3)n1)N=C[C@@H]1Cc3ccccc3CN1C2=O
4
COc1cc2c(cc1OCCCC(=O)Nc1cn(C)c(C(=O)Nc3ccc(-c4cc(C(=O)NCC(C)(C)SSC)n(C)c4)cc3)n1)N=C[C@@H]1Cc3ccccc3CN1C2=O
0.1

Switching to the query record.
Enquiry: Recall and state the measured IC50 for "COc1cc2c(cc1OCCCC(=O)Nc1cn(C)c(C(=O)Nc3ccc(-c4cc(C(=O)NCC(C)(C)SSC)n(C)c4)cn3)n1)N=C[C@@H]1Cc3ccccc3N1C2=O" .
Return: 0.4

###

# System: T47D (breast epithelial cancer)
# ASSAY_REMARKS: in vitro cytotoxicity assay, T47D cells
# Format: cell-based
# RUN_CONDITIONS: Homo sapiens, 96 h, read-out: IC50 T47D
REPORTED_METRIC: pIC50
Entry type: numeric. Quantity: pIC50, the -log10 of concentration in molar units.

Enquiry: Recall and state the measured pIC50 for COC(=O)c1cc2cc(NC(=O)c3cc(NCCCCOc4cc5c(cc4OC)C(=O)N4c6ccccc6C[C@H]4C=N5)cn3C)ccc2s1 [Compound 216] .
Return: 8.70
